molecular target: CaBzz1-D2; test: SPOT peptide array binding signal intensity (averaged, normalized) (arbitrary units (background-subtracted, floor 0; scale differs between SH3 domains)); higher = stronger binding of the SH3 domain to the peptide
readout name: SPOT peptide array binding signal intensity

INSERT INTO results (binder, reading_qualifier, test_value) VALUES
  ('TPRLSLPRLPNKHHW', '=', 34.5),
  ('PAPPPPPRASRPTPN', '=', 162),
  ('RKNRAPPQRPRFNRD', '=', 1020),
  ('PPLPRAPPVPPATFE', '=', 39.5),
  ('RPPRPPPKPLHLRTE', '=', 405),
  ('DLFKPLPEPPTELGR', '≤', 0),
  ('NSVPIMPTLPPRPYI', '=', 3),
  ('KRKRFNLLLPKPYLT', '=', 46.5),
  ('GSKSGPPPRPKKPST', '=', 388),
  ('HGKRRAPLLLAKLDV', '=', 51.8),
  ('PPIPNAPLSPAPAVP', '=', 10.5),
  ('SGVRLPAPPPPPRRG', '=', 1360),
  ('MSPLGAPPPPPHKDH', '=', 3.25),
  ('RAPPPVPKKPSSRIA', '=', 2940),
  ('NRPAIRIPSLKKPAL', '=', 21.8),
  ('LASNSPPVYPKRIRH', '=', 44.8),
  ('LYKRKPILLPDPKPL', '=', 40.8),
  ('KTRLRPAFIQQLWSS', '=', 59),
  ('KLSRGRYGLPLSSRP', '=', 100);
